- Tested on: CLK3
- test context: concentration: 1 μM, replicates: in singlicate; n = 1;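 note: KINOMEscan kinase panel screen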
Kindly state %Inh for each of the entries shown.
Give bare numbers, in %.

Please give %Inh for each item listed below.
1. O=C(Nc1n[nH]c2cc(-c3ccoc3)ccc12)C1CC1
2. Cn1cc(-c2[nH]c3cc(NC(=O)[C@H](N)C4CCCCC4)cc4c3c2C=NNC4=O)cn1

1. 13
2. 13

====

For each record, write down the corresponding %Inh.
- Tested on: EPHA7
- test context: concentration: 1 μM, replicates: in singlicate; n = 1
One number for each entry, in %.

# smiles code, unit tag, %Inh
data = [
    ("Fc1ccc(-c2ncn(C3CCNCC3)c2-c2ccnc(Oc3ccc(-c4ccccc4)cc3)n2)cc1", "%", 3),
]

For each of the compounds below, state %Inh.
1. Cl.c1ccc(-c2ccc3c(Nc4ccc5[nH]ccc5c4)ccnc3c2)nc1
2. COc1cc(Nc2nccc(-c3c(-c4cccc(NC(=O)c5c(F)cccc5F)c4)nn4ncccc34)n2)cc(OC)c1OC
3. COc1cccc(C(=O)Nc2cccc(Oc3ccc4nc(NC(=O)C5CC5)cn4n3)c2)c1
4. COCCOCCOc1cc2ncc3c4ccc(C#N)cc4[nH]c3c2cc1OC
5. CCn1c(-c2nonc2N)nc2c(C#CC(C)(C)O)nc(OC[C@H](N)c3ccccc3)cc21
6. COc1cc(Nc2ncc3c(C)nc(-c4cc5ccccc5[nH]4)n3n2)cc(OC)c1OC
7. COc1ccc(Nc2nccc(NCCNC(=O)c3cc4ccccc4s3)n2)cc1

1. 3
2. 9
3. 5
4. 11
5. 0
6. 0
7. 0
